System: male Wister rats
Experiment: blood glucose-lowering activity in dexamethasone-treated rats
Format: in vivo
Conditions: male Wister rats given dexamethasone 0.5 mg/kg i.p. once a day for 4 days; test compound 100 mg/kg orally daily; serum glucose on day 4, 4 hours after dexamethasone, fasted 24 hours; versus control and normal groups
Procedure: The compounds of the present invention were tested for blood glucose-lowering activities in rats in the following manner. […] Animals which were given 5% gum arabic solution instead of a test compound were served as a control group and those which were maintained merely on a diet ad libitum were served as a normal group. The serum glucose levels of them were measured according to the same manner as above. […]
I'd appreciate it if you could supply Decrease rate (%) in blood glucose level values for the items below.
One number for each entry, in %.

These recorded examples may help you get a feel for the data.
INSERT INTO measurements (smiles_input, endpoint_name, reported) VALUES
  ('CCOP(=O)(CCCC(=O)Nc1c(Cl)cc(Cl)cc1C(=O)NC)OCC', 'Decrease rate (%) in blood glucose level', 39),
  ('CCOP(=O)(CCCC(=O)Nc1cccc(Cl)c1C(=O)Nc1ccccc1)OCC', 'Decrease rate (%) in blood glucose level', 59),
  ('CCOP(=O)(OCC)C(=O)Nc1cc(Cl)ccc1C(=O)NC', 'Decrease rate (%) in blood glucose level', 17);

Here is the next item to consider.
# query: Decrease rate (%) in blood glucose level of entry CCOP(=O)(CCCC(=O)Nc1cc(Cl)cc(Cl)c1C(=O)NC)OCC 30

# credit: patent US6468992B1
